- TESTED_SYSTEM: Bifunctional epoxide hydrolase 2 (Homo sapiens) (UniProt P34913)
- Sequence (P34913 whole entry): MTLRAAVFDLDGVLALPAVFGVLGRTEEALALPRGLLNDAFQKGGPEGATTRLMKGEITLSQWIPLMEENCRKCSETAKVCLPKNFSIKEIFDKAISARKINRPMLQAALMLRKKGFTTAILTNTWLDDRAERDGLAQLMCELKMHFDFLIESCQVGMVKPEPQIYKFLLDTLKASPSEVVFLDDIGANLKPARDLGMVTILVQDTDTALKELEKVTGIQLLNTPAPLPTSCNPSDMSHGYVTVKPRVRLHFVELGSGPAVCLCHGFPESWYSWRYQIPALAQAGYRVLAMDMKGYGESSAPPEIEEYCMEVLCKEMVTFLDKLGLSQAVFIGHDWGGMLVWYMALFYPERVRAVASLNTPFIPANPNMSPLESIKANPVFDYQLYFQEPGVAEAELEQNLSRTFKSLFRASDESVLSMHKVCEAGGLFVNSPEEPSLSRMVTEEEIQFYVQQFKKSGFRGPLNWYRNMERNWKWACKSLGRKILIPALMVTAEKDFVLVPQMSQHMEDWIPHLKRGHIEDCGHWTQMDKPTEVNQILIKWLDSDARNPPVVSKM
- METHOD_SUMMARY: Inhibition of recombinant human sEH at 100 nM using PHOME as substrate measured after 15 mins by fluorescence assay relative to control
molecules and their reported inhibition
MEASURED_METRIC: inhibition

> print(dat)
                            molecule.smiles  recorded.result
1  CC(=O)Nc1nc2ccc(N(CCN3CCOCC3)C(=O)Nc3ccc(Cl)cc3)cc2s1            68.1%
2  O=C(Cc1ccc(Br)cc1)Nc1nc2ccc(N(CCN3CCOCC3)C(=O)Nc3ccc(Cl)cc3)cc2s1            70.6%
3  O=C(Nc1nc2ccc(N(CCN3CCOCC3)C(=O)Nc3ccc(Cl)cc3)cc2s1)c1ccccc1            48.8%
4           Nc1nc2ccc(NC(=O)Nc3ccccn3)cc2s1            20.5%
5  O=C(CCc1ccccc1)Nc1nc2ccc(N(CCN3CCOCC3)C(=O)Nc3ccc(Cl)cc3)cc2s1            77.7%
6       Nc1nc2ccc(NC(=O)Nc3ccc(Cl)cc3)cc2s1            76.1%
7  O=C(Nc1ccc(Cl)cc1)Nc1nc2ccc(NCCN3CCOCC3)cc2s1            16.2%
